- Tgt: Tryptase-g1 (Homo sapiens, UniProt Q9NRR2)
- Sequence (Q9NRR2 20-321): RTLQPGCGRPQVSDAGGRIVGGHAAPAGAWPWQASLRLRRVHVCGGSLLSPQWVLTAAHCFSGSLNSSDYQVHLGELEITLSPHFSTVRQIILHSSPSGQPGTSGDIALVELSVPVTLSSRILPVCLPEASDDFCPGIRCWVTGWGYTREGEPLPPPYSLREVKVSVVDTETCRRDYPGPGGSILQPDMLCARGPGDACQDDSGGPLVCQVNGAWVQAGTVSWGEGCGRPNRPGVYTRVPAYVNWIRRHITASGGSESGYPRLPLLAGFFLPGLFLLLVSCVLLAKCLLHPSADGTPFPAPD
pIC50: −log10 of the molar value.

| Smiles entry | Tgt | pIC50 |
| --- | --- | --- |
| C=Cc1cc(C(=O)Nc2ccc(C(=N)N)cc2)c(-c2ccc(C(=O)NCC3CC3)nc2C(=O)O)cc1OC | Tryptase-g1 (Homo sapiens, UniProt Q9NRR2) | 9.03 |

Values compiled from patent US20240226076A1.
